- TARGET OF ASSAY: 1D-myo-inositol 2-acetamido-2-deoxy-alpha-D-glucopyranoside deacetylase (Mycobacterium tuberculosis, UniProt P9WJN3)
- Sequence (P9WJN3 whole entry): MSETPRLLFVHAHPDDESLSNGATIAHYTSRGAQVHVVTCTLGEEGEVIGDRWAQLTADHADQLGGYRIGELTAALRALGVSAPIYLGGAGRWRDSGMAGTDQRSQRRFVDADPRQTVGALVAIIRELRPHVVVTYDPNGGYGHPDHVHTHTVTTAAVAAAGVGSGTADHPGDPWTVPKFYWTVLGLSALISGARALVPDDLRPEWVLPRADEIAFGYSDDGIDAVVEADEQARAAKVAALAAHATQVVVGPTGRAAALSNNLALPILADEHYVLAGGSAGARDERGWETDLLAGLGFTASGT
pKi: −log10 of the molar value.
Each entry below carries its reported pKi.

# STRUCTURE AS SMILES, pKi
rows = [
    ("CC1=C(CCCCC(=O)N[C@@H]2[C@@H](O)[C@H](O)[C@@H](CO)O[C@@H]2Sc2ccccc2)C(=O)c2c(O)cccc2C1=O", 4.03),
    ("CC1=C(CCCCCC(=O)N[C@@H]2[C@@H](O)[C@H](O)[C@@H](CO)O[C@@H]2Sc2ccccc2)C(=O)c2c(O)cccc2C1=O", 4.77),
    ("CC1=C(CCC(=O)N[C@@H]2[C@@H](O)[C@H](O)[C@@H](CO)O[C@@H]2Sc2ccccc2)C(=O)c2c(O)cccc2C1=O", 3.78),
]
